Assay: Half-life in male Sprague-Dawley rat at 5 mg/kg, po measured after 8 hrs by LC-MS/MS analysis
Conditions: in vivo
recorded metric: half-life at 8 h
Please append the unit to your numeric answer.

For "CCN1C(=O)N(c2ccc(C3CC3)cc2)C(=O)C12CCN(CC1CCOCC1)CC2" , what is its reported half-life at 8 h?
5.1 h

---

Hi there, I'd appreciate the recorded Papp A→B for every entry that follows.
Test system: MDR1
Experiment: in vitro
Conditions: dog, MDCK-MDR1

CCN1C(=O)N([C@H]2CC[C@H](C(F)(F)F)CC2)C(=O)C12CCN(CC1CCOCC1)CC2 :: 14 ×10⁻⁶ cm/s

Using the record for "CCN1C(=O)N(c2ccc(C3CC3)cc2)C(=O)C12CCN(CC1CCOCC1)CC2" , report its Papp A→B.
15 ×10⁻⁶ cm/s

---

Molecular target: 3-beta-hydroxysteroid-Delta(8),Delta(7)-isomerase (Homo sapiens, UniProt Q15125)
Sequence (Q15125 whole entry): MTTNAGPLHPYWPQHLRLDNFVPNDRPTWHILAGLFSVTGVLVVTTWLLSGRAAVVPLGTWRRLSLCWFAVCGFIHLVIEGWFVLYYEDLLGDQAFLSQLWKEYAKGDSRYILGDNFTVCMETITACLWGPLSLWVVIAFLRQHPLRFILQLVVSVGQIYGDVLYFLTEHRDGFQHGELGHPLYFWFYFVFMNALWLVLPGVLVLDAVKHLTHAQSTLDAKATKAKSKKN
Experiment: Inhibition of EBP in human Mesenchymal stem cells assessed as zymostenol accumulation by GCMS analysis
recorded metric: EC50 (µM)
Answers are plain numbers, in µM.

CC(C)N1C(=O)N(c2ccc(C(F)(F)F)cc2)C(=O)C12CCN(CC1CCOCC1)CC2 :: 0.669

Read the next record carefully.
Report EC50 for "O=C1N(c2ccc(C(F)(F)F)cc2)CCC12CCN(CC1CCOCC1)CC2" please.
0.147

---

Experiment: Unbound brain-to-plasma concentration ratio in male Sprague-Dawley rat at 5 mg/kg, po measured after 8 hrs by LC-MS/MS analysis
recorded metric: Kp uu at 8 h
Answers are plain numbers.

CCN1C(=O)N([C@H]2CC[C@H](C(F)(F)F)CC2)C(=O)C12CCN(CC1CCOCC1)CC2 :: 0.58

// moving on: another record for Kp uu at 8 h
So what's the measured Kp uu at 8 h for this one? "CCN1C(=O)N(c2ccc(C3CC3)cc2)C(=O)C12CCN(CC1CCOCC1)CC2"
0.5

---

Assay: Clearance in male Sprague-Dawley rat at 1 mg/kg, iv measured after 8 hrs by LC-MS/MS analysis
Conditions: in vivo
Could you please report measured clearance at 8 h for the items listed next?
Include the unit after the number when you answer.

CCN1C(=O)N(c2ccc(C(F)(F)F)cc2)C(=O)C12CCN(CC1CCOCC1)CC2 :: 6.3 mL/min/kg
CCN1C(=O)N(c2ccc(C3CC3)cc2)C(=O)C12CCN(CC1CCOCC1)CC2 :: 17 mL/min/kg

Now for a further compound.
Which clearance at 8 h value is on record for "CCN1C(=O)N([C@H]2CC[C@H](C(F)(F)F)CC2)C(=O)C12CCN(CC1CCOCC1)CC2" ?
9.2 mL/min/kg
